Data credit: the supplement of paper PMC10065799

# Assayed Target: SHP2-C SH2;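 further: peptide library displayed on the E. coli surface as eCPX fusions, selected cells deep-sequenced, score is each peptide's frequency after selection divided by its frequency in the input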
# Assay Name: SH2 binding enrichment of the phosphorylated peptide, bacterial display (enrichment ratio); higher = better substrate or ligand; peptides without Tyr show the background
Cut-off 0.6 on SH2 binding enrichment, inclusive. At or above means t; below means f.

Would you please look over these solved cases?
{"columns": ["Item Sequence", "Assayed Target", "Class Name"],
 "data": [
  ["TTTQAYRVNER [PRKN_Y391_D394N]", "SHP2-C SH2", "f"],
  ["QMQAAYQKVVA [HBD_Y131]", "SHP2-C SH2", "f"],
  ["ALMGPYHGQVL [HADHA_Y343_L342P]", "SHP2-C SH2", "t"],
  ["TTEHIYGDKFF [UBA7_Y524_N527K]", "SHP2-C SH2", "t"],
  ["VITDFYVDMKF [MPP4_Y567_YF]", "SHP2-C SH2", "f"],
  ["FIGRIYLYLTK [GARS1_Y414]", "SHP2-C SH2", "t"]
]}

Is the recorded value of SH2 binding enrichment equal to or greater than 0.6 for this sequence? LTGIAYSLPHW [SLC22A14_Y291]
t

Is the recorded value of SH2 binding enrichment equal to or greater than 0.6 for this sequence? RIGRKCKKVRF [F8_Y442_Y442C]
f

Is the recorded value of SH2 binding enrichment equal to or greater than 0.6 for this sequence? LVRPPYSFLAL [FOXI1_Y126_S129L_YF]
t

Is the recorded value of SH2 binding enrichment equal to or greater than 0.6 for this sequence? YVSSFYHAFSG [ACTN4_Y265]
t

Is the recorded value of SH2 binding enrichment equal to or greater than 0.6 for this sequence? FAREGYSALPQ [SARS2_Y52_YF]
t

Is the recorded value of SH2 binding enrichment equal to or greater than 0.6 for this sequence? SHPSSYTTHPQ [NIPBL_Y195]
t
